Measured log10(IC50) of individual entries
target: UniProt:P13866
Sequence (P13866 whole entry): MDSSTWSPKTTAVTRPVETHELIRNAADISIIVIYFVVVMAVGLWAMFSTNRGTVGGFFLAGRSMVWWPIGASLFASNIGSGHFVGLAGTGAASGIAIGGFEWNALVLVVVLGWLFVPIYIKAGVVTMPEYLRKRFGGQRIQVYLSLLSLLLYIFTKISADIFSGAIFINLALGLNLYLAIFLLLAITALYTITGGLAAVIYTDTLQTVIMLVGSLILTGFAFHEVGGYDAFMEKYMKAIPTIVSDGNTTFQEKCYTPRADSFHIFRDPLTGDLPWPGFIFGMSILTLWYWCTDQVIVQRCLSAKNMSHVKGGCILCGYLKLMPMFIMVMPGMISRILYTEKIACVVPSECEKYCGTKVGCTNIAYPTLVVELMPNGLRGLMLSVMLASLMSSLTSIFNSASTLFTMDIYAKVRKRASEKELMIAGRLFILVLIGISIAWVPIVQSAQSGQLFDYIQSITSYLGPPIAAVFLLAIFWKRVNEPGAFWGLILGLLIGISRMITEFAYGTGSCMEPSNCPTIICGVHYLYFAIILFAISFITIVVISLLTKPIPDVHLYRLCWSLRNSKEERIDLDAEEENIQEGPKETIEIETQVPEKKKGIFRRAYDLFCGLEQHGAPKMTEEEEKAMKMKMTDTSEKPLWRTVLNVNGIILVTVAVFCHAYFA
assay_protocol: Sodium-dependent sugar uptake inhibition test in CHO-K1 cells stably expressing human SGLT1 (Test Example 2)
setup_conditions: [14C]methyl-α-D-glucopyranoside 0.1 mM, 37° C., 30 minutes
Recorded IC50 (log10, µM)

Please review the entries below; each comes with its answer.
Problem: # query: log10(IC50) of entry OC[C@H]1S[C@@H](c2ccc(Cl)c(Cc3ccc(O)cc3)c2)[C@H](O)[C@@H](O)[C@@H]1O
Result: -0.52

Problem: What about CCOc1ccc(Cc2cc([C@@H]3S[C@H](CO)[C@@H](O)[C@H](O)[C@H]3O)c(OC)cc2Cl)cc1 ?
Result: 0.75

Problem: What about OC[C@H]1S[C@@H](c2ccc(Cl)c(Cc3cc4ccccc4o3)c2)[C@H](O)[C@@H](O)[C@@H]1O ?
Result: 0.64

Problem: What about CCOc1ccc(Cc2cc([C@@H]3S[C@H](CO)[C@@H](O)[C@H](O)[C@H]3O)ccc2Cl)cc1Cl ?
Result: 0.79

Continuing:
Problem: # query: log10(IC50) of entry Cc1ccc(Cc2cc([C@@H]3S[C@H](CO)[C@@H](O)[C@H](O)[C@H]3O)ccc2Cl)cc1
Result: -0.70

Problem: What about CCOc1ccc(Cc2cc([C@@H]3S[C@H](CO)[C@@H](O)[C@H](O)[C@H]3O)c(OC)cc2C)cc1 ?
Result: 0.80

Problem: What about COc1cc(C)c(Cc2ccc(C(C)C)cc2)cc1[C@@H]1S[C@H](CO)[C@@H](O)[C@H](O)[C@H]1O ?
Result: 1.23

----------
target: Human SGLT2 (Homo sapiens, UniProt P31639)
Construct: expressed in transfected cells; host or cells: CHO-K1
assay_protocol: Sodium-dependent sugar uptake inhibition test in CHO-K1 cells stably expressing human SGLT2 (Test Example 2)
Format: cell-based
setup_conditions: ratio of IC50 human SGLT1 to IC50 human SGLT2
Method: Human SGLT1 sequence (NM_000343) was reverse-transcripted from human small intestinal mRNA, then amplified, and then introduced into pCMV-tag5A from Stratagene Corporation. […] Cells stably expressing human SGLT1 and human SGLT2 were used in the sodium-dependent sugar uptake activity inhibition test. […] After Aquazole 2 (Perkin Elmer Corporation) was added and mixed well, radioactivity was measured with a liquid scintillation counter (Beckman Coulter Corporation). […]
quantity_kind: SGLT1/SGLT2
Keep the answer to the number alone.

Please review the entries below; each comes with its answer.
Problem: # query: SGLT1/SGLT2 of entry OC[C@H]1S[C@@H](c2cccc(Cc3cc4ccccc4s3)c2)[C@H](O)[C@@H](O)[C@@H]1O [Compound 129]
Result: 4.3

Problem: What about CCOc1ccc(Cc2ccc(O)c([C@@H]3S[C@H](CO)[C@@H](O)[C@H](O)[C@H]3O)c2)cc1 [Compound 79] ?
Result: 7.2

Problem: What about COc1cc(Cl)c(Cc2ccc(C(C)C)cc2)cc1[C@@H]1S[C@H](CO)[C@@H](O)[C@H](O)[C@H]1O [Compound 103] ?
Result: 347.9

Problem: What about OC[C@H]1S[C@@H](c2ccc(Cl)c(Cc3cc4ccccc4o3)c2)[C@H](O)[C@@H](O)[C@@H]1O [Compound 132] ?
Result: 8.9

Problem: What about CCc1ccc(Cc2cc([C@@H]3S[C@H](CO)[C@@H](O)[C@H](O)[C@H]3O)ccc2Cl)cc1 [Compound 95] ?
Result: 22.3

Continuing:
Problem: # query: SGLT1/SGLT2 of entry CCOc1ccc(Cc2cc([C@@H]3S[C@H](CO)[C@@H](O)[C@H](O)[C@H]3O)c(O)cc2O)cc1 [Compound 100]
Result: 2.9

Problem: What about COc1cc(C)c(Cc2ccc(C)cc2)cc1[C@@H]1S[C@H](CO)[C@@H](O)[C@H](O)[C@H]1O [Compound 104] ?
Result: 29.8

Problem: What about CCOc1ccc(Cc2cc([C@@H]3S[C@H](CO)[C@@H](O)[C@H](O)[C@H]3O)ccc2Cl)cc1 [Compound 76] ?
Result: 14.6

Problem: What about CCc1ccc(Cc2cc([C@@H]3S[C@H](CO)[C@@H](O)[C@H](O)[C@H]3O)c(OC)cc2Cl)cc1 [Compound 102] ?
Result: 86.6

Problem: What about CCOc1ccc(Cc2cc([C@@H]3S[C@H](CO)[C@@H](O)[C@H](O)[C@H]3O)c(OC)cc2Cl)cc1 [Compound 99] ?
Result: 178.6

Problem: What about CCOc1ccc(Cc2cc([C@@H]3S[C@H](CO)[C@@H](O)[C@H](O)[C@H]3O)ccc2O)cc1 [Compound 82] ?
Result: 4.0

Problem: What about CC(C)c1ccc(Cc2cc([C@@H]3S[C@H](CO)[C@@H](O)[C@H](O)[C@H]3O)ccc2Cl)cc1 [Compound 96] ?
Result: 116.3

Problem: What about COc1ccc([C@@H]2S[C@H](CO)[C@@H](O)[C@H](O)[C@H]2O)cc1Cc1cc2ccccc2s1 [Compound 127] ?
Result: 0.6

Problem: What about CCOc1ccc(Cc2cc([C@@H]3S[C@H](CO)[C@@H](O)[C@H](O)[C@H]3O)ccc2Cl)c(F)c1 [Compound 91] ?
Result: 15.5

----------
target: Human SGLT2 (Homo sapiens)
Construct: expressed in transfected cells; host or cells: CHO-K1
assay_protocol: Sodium-dependent sugar uptake inhibition test in CHO-K1 cells stably expressing human SGLT2 (Test Example 2)
Type: cell-based
setup_conditions: CHO-K1 cells, [14C]methyl-α-D-glucopyranoside 1 mM, 37° C., one hour
quantity_kind: IC50
State the result as a value with its unit after it.

Problem: # query: IC50 of entry CCc1ccc(Cc2cc([C@@H]3S[C@H](CO)[C@@H](O)[C@H](O)[C@H]3O)c(OC)cc2Cl)cc1 [Compound 102]
Result: 40 nM

----------
target: Human SGLT2 (Homo sapiens, UniProt P31639)
Construct: expressed in transfected cells; host or cells: CHO-K1
Sequence (P31639 1-672): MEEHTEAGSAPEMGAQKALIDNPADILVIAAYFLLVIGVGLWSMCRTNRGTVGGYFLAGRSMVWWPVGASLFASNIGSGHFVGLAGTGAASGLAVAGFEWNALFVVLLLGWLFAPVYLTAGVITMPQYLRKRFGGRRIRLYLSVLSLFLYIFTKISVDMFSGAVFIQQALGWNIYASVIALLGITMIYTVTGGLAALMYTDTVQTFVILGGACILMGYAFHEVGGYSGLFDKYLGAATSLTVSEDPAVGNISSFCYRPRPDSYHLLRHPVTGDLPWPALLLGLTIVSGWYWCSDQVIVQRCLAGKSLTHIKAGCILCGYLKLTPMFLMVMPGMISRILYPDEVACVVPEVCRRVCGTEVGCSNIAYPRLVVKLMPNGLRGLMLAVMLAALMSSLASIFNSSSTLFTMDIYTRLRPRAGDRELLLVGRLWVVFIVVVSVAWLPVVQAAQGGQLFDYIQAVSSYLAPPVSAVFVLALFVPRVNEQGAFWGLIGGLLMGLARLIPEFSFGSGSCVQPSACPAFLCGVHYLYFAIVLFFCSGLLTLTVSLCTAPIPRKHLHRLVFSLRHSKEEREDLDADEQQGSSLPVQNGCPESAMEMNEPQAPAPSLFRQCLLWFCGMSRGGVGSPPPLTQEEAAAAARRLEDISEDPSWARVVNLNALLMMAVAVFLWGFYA
assay_protocol: Sodium-dependent sugar uptake inhibition test in CHO-K1 cells stably expressing human SGLT2 (Test Example 2)
Assay type: cell-based
setup_conditions: ratio of IC50 human SGLT1 to IC50 human SGLT2
Outcome label depends on SGLT1/SGLT2 relative to 20: at/above gives rule met, below gives rule not met.

Field: example entries. Status: answers known.
Problem: Check the entry CCOc1ccc(Cc2cc([C@@H]3S[C@H](CO)[C@@H](O)[C@H](O)[C@H]3O)ccc2OC)cc1 : does SGLT1/SGLT2 equal or exceed 20?
Result: rule not met

Problem: What about CSc1ccc(Cc2cc([C@@H]3S[C@H](CO)[C@@H](O)[C@H](O)[C@H]3O)ccc2Cl)cc1 ?
Result: rule met

Problem: What about CCOc1ccc(Cc2cc([C@@H]3S[C@H](CO)[C@@H](O)[C@H](O)[C@H]3O)c(OC)cc2C)cc1 ?
Result: rule met

Continuing:
Problem: Check the entry COc1cc(C)c(Cc2ccc(C(C)C)cc2)cc1[C@@H]1S[C@H](CO)[C@@H](O)[C@H](O)[C@H]1O : does SGLT1/SGLT2 equal or exceed 20?
Result: rule met

Problem: What about Cc1ccc(Cc2cc([C@@H]3S[C@H](CO)[C@@H](O)[C@H](O)[C@H]3O)ccc2Cl)cc1 ?
Result: rule not met

Problem: What about CCOc1ccc(Cc2cc([C@@H]3S[C@H](CO)[C@@H](O)[C@H](O)[C@H]3O)c(O)cc2C)cc1 ?
Result: rule not met

Problem: What about COc1ccc(Cc2cc([C@@H]3S[C@H](CO)[C@@H](O)[C@H](O)[C@H]3O)ccc2Cl)cc1 ?
Result: rule not met
